Target: T1, interleukin 18 binding protein (IL-18BP) (UniProt O95998 31-194)
T1 sequence (looked up): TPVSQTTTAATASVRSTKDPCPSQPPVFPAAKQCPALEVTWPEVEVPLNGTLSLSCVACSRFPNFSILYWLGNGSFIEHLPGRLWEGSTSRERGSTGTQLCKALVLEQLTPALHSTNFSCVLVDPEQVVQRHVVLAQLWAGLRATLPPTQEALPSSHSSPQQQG
Assay: cell-based or functional assay
ASSAY METRIC: Ratio (-BP/+BP), DF-100,000
Reply briefly: the number, and no unit.

Exam item: Please give measured Ratio (-BP/+BP), DF-100,000 of the following entry: IL-18 variant K53L, S55G (ligand) YFGKLESKLSVIRNLNDQVLFIDQGNRPLFEDMTDSDMRDNAPRTIFIISMYLDGQPRGMAVTISVKSEKISTLSSENKIISFKEMNPPDNIKDTKSDIIFFQRSVPGHDNKMQFESSSYEGYFLASEKERDLFKLILKKEDELGDRSIMFTVQNED
Marked response: 0.92

Exam item: Please give measured Ratio (-BP/+BP), DF-100,000 of the following entry: IL-18 variant S36W, D37E, D40F, N41I, K53D, S55N (ligand) YFGKLESKLSVIRNLNDQVLFIDQGNRPLFEDMTDWEMRFIAPRTIFIISMYDDNQPRGMAVTISVKSEKISTLSSENKIISFKEMNPPDNIKDTKSDIIFFQRSVPGHDNKMQFESSSYEGYFLASEKERDLFKLILKKEDELGDRSIMFTVQNED
Marked response: 1.07

Exam item: Please give measured Ratio (-BP/+BP), DF-100,000 of the following entry: IL-18 variant K53D, S55T, H109I (ligand) YFGKLESKLSVIRNLNDQVLFIDQGNRPLFEDMTDSDMRDNAPRTIFIISMYDDTQPRGMAVTISVKSEKISTLSSENKIISFKEMNPPDNIKDTKSDIIFFQRSVPGIDNKMQFESSSYEGYFLASEKERDLFKLILKKEDELGDRSIMFTVQNED
Marked response: 0.97
